# key: entry, value: pKd
testedOn: T1, Human EphA4-Fc fusion protein (human, UniProt P54764 20-547)
T1 construct: not shown: Fc portion of a human IgG1
procedureSummary: BIAcore, IgG immobilized on the sensor chip, EphA4-Fc as analyte
Method: FIG. 15A-15B. […] Binding affinities were measured using the BIAcore assay. […] Variant kinetic measurements for human EphA4 and were obtained using BIAcore with immobilized variant antibodies and human EphA4-Fc and EphA4-His as analytes.
The quantity pKd is defined as the negative base-10 logarithm of the molar concentration.

- binder: "8B4 IgG1 (affinity optimized combinatorial variant of mAb GEA44 in human IgG1 format) (antibody, V domains shown) VH: QVQLLQSGAEVKKPGASVKVPCKASGYTFTSRAMSWVRQAPGQGLEWMGWINTNTGNPTYAQGFTGRFVFSLDTSVSTAYLQISSLKAEDTAVYYCARVRLTVYGDGMDVWGQGTLVTVSS VL: EIVLTQSPATLSVSPGERATLSCRASQSVSSNPAWYQQKPGQAPRLLIYGLSTRATGIPDRFSASGSGTDFTLTISRVEPEDFAVYYCQQYGPSWTFGQGTKVEIK"
  pKd: 9.71

Kindly review the next binder as well.
**Q:** Return pKd for the following binder: 2C9 IgG1 (affinity optimized combinatorial variant of mAb GEA44 in human IgG1 format) (antibody, V domains shown) VH: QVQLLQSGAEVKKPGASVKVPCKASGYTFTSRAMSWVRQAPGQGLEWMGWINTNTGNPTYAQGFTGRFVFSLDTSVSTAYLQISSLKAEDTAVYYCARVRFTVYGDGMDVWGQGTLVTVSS VL: EIVLTQSPATLSVSPGERATLSCRASQSVSSNLAWYQQKPGQAPRLLIYGASTRPTGIPDRFSASGSGTDFTLTISRVEPEDFAVYYCQQYGPSWTFGQGTKVEIK
**A:** 10.36
